biological target: HLA-B*07:02; assay: IEDB peptide-MHC binding, purified MHC/competitive/radioactivity; filed as Kd, often an IC50 or EC50 that approximates it; bounds were set here for any values at or beyond the usual limits of such assays; conditions: source organism: Vaccinia virus WR
Quick list: log10 of Kd per entry.
A difference of one corresponds to tenfold Kd; all values are log10 with Kd in µM.

Consider the worked cases shown below.
Record "APIKEFKAKI" . Reported log10 of Kd: -1.69

log10 of Kd reading for "VPSVNEYHML" : 0.08

Entry "VILFIMFMLI" , log10 of Kd reported as 0.74

Record "TPVSMTYLY" . Reported log10 of Kd: -0.77

So for "YIIRVTTEL" , the logged log10 of Kd turned out to be -0.28

--- query ---
# log10 of Kd of "LPHLCLDYKV" = 0.93
